Reported amyloid nucleation score values for a set of substances
procedure.text: amyloid nucleation score (Sup35N fusion, yeast selection) (log enrichment); library NNK1; higher = more nucleation; inactive = no reads after selection;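 also: zero at mode of non-aggregating sequences after 7 days selection at 30°C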
assay.readout: amyloid nucleation score

1. GMCPLNRNGGFGNGVVEGVV: 0.166
2. LSFWLCSWSMWCKSQLGNDR: 2.13
3. GSRSLLQR: -1.06
4. ARYRYVTVYQV: -0.725
5. RIVQLFSRRNMRCFFIKE: 3.07
6. LLYFRVRSMFKGLRNETYMA: 0.411
7. FYASQRSTPHAVFLCNALKV: 0.304
8. NRSWYIRVLHRATSVSLKSF: -0.226
9. GQTVNCNATYFSVTIVGIVG: 2.8
10. NSVWHGLYCSQQRSLRTTRL: 0.116
11. SLDRYIREHK: 0.635
12. DFEDTYSWKVTGEGATRKRW: 0.166
13. AKKWNSSMAKCNFNCLKSVW: -2.05
14. IYAGHRQHGAV: -0.386
15. SWASLIC: -0.838
16. EIQGNLNILSLLGLSRRSKG: 0.016
17. VCIECTVAVKFHGYMRHSCC: 1.09
18. VHSVLKWLRWDSIPCIVLIR: -0.487
19. QWRSFYTAWVAYRDECPGGF: 2.44
20. VSLLSVWFDTHYIWSITGVD: -0.247
21. MLCFSLVYNGREGYEINLLH: -0.552
22. VQISQETFYNWLFVPAVSVP: -0.282
23. TNVVRVSLCFYMY: 8.78
24. SLFHLNFTIRWVDHAADSLV: 1.98
25. TRVEFEQGVVFGELYSVFRV: 0.351
26. LPYNHTQTVMDFIYFVFWLL: 0.698
27. YMLSDLITCLCVAEELFRGQ: 4.81
28. TMSFSFF: 0.855
29. GWTIKSSYYG: -0.906
30. GGFHYAVDWSCLRNIVWADL: -1.2
31. DIGRSAGRGVFVFSLLCNKW: 3.63
32. LYESELLNNHQETSPQSSEG: -0.349
33. FTCFATCCVLMNNVYYFMTL: 5.08
34. VNLNVFLRR: 0.059

----------
procedure.text: amyloid nucleation score (Sup35N fusion, yeast selection) (log enrichment); library NNK1; higher = more nucleation; inactive = no reads after selection
assay.readout: amyloid nucleation score

1) IGCSCGLHT: inactive
2) LIFLLSQSIVVMQWSGRKKQ: inactive
3) QVRSSDSGLVNHFVNE: inactive

----------
procedure.text: amyloid nucleation score (Sup35N fusion, yeast selection) (log enrichment); library NNK1; higher = more nucleation; inactive = no reads after selection
The threshold is inclusive: amyloid nucleation score of exactly 0.06 counts as rule met; values below receive rule not met.

1) SCKCLTSTGGGSGDRKGWNG: rule met
2) DQSWSREWPCVLVHHVHYKD: rule met
3) GSLLLMGRTMDVYQNRHFFH: rule met
4) IVFLVLRTANRMWNDYHAS: rule not met
5) INVFREAYIIYCRCEGSGGD: rule met
6) IYINVP: rule met
7) GSGKCVPGDTELAILGLKR: rule met
8) KWYERLCIRATLKATLGYFT: rule not met
9) TLRCDFLPRNKF: rule not met
10) NSGNICSVGCGL: rule met
11) QWVSMTEVYFVVNKRWMCSR: rule not met
12) EYLFCCVCADLFNTWDKSLG: rule met
13) QTLDRNNARSSDNGCSVGGA: rule not met
14) LKASWRAGRATVREKGCKLA: rule met
15) KLLWSPYSGCVVYNIKVKGR: rule met
16) WVTVPNTKKTNVLFGQWTIV: rule not met
17) FYLLTGLFSQVGTLLFHWSR: rule not met
18) YSTYLSS: rule met
19) SISVNTFLRPQLRWM: rule met
20) CEKTWNLRDCSGLLQVTRG: rule met
21) YGDDRWYIRSIIEDCQLGGF: rule not met
22) NGNEYMVHRHADKWNTGQYR: rule met
23) DNLLEAASNNIIEYVCSPLE: rule met
24) ADYTQCRLYVM: rule not met
25) WNISSTFGYGNHWLG: rule met
26) MNDVNLFMEYNKSFYVDFYM: rule met
27) VKTINFISQLSCWCKRPFRK: rule met
28) LCLDVLSGLCYFYLQ: rule met
29) YSLLTVASREVSKQSGTSRI: rule met
30) KCNVTQFVRSLYIRMSMLLH: rule met
31) NFRGLRLSKIYLLHHAGNLW: rule met
32) YILNGVPVKAFFLGYGADYS: rule not met
33) SLWVWRNAWLVHLYRL: rule not met

----------
procedure.text: amyloid nucleation score (Sup35N fusion, yeast selection) (log enrichment); library NNK3; higher = more nucleation; inactive = no reads after selection
assay.readout: amyloid nucleation score

1. LRFAYTFFWYVRFRVRICFN: inactive
2. RLVLRDPTSTVIVRVPLGFV: -0.547
3. MFLWRDCNGTN: inactive
4. YPLRSGF: inactive
5. MRLCAGSCAVFMWNVLVMLG: inactive
6. TLCSSGGMFHRSMDSITMS: inactive
7. AVLCELVQDMFSLGVYVCHE: 0.531
8. PSHTLRNTSLSMSVSTTHKA: inactive
9. TWLMFIFNSRYL: 1.51
10. SLNCDGSSDGRCAAYQIWLC: inactive
11. RRYVSSDFFLSAWWTVS: inactive
12. SNIVFVPRSLQRREDGRRMD: inactive
13. MCGDKSV: inactive
14. TYMSNNTMGEFFLNLRVNLY: 2.44
15. GALAKFLLISKTMRVDMRMV: inactive
16. RLPLPL: inactive
17. LISCAMGRELTYRSNSRRGR: inactive
18. WKNNRLNIIYQPLLGTQICK: inactive
19. SLYWSAMRKYNVVRTIYSRW: inactive
20. SSLLANRYVWLDKLRHWHWR: inactive
21. RLNVYTYAKFRRHRCKATSW: inactive
22. NVLLYNRKGQFSKCLCKSVD: inactive
23. RWLTVKPSRIRLWGCSWGLR: inactive
24. YYYQNRYFELRHLPEFSS: inactive
25. MCILQGLFDVNSLTGLWVAS: inactive
26. EFPRGLGSR: -0.236
27. MGHSDNGEDTSTWLCDRRVV: inactive
28. RKPFENIDS: inactive
29. LNIIVDGLAMDVYDEALGSN: inactive
30. MWVNATSSV: inactive
31. ARICVRAFKETCDYKLGCST: 0.052
32. LIVAFSLASLGLKFSQCSWA: -0.363
33. SPRAFTASVEGVSEL: inactive
34. CCFTLGAVSNCSLRGNSQTL: -1.2
35. TCTGCTSVTL: inactive
36. GRIYFYLVKTDPVQERTQLF: inactive
37. CMQLVMSYTVCFVDGGVLA: inactive
38. LVNGTFNFSDHAESESCSHS: inactive
39. ISRDGVRCEVWMWPWPREPA: inactive

----------
procedure.text: amyloid nucleation score (Sup35N fusion, yeast selection) (log enrichment); library NNK1; higher = more nucleation; inactive = no reads after selection
assay.readout: amyloid nucleation score

1. NGSADNIIVYGYDANLRWVR: 0.262
2. RQPVRAMHLDISVRWSYWSV: 2.79
3. FINRGAGPTLSRGQSRYNSA: 0.011
4. SQFLLYSPINFLCFAENHNG: 6.36
5. YFSWLFPFIDLSRVSASMPT: 2.69
6. CLLFTEMFTPLVEVAESM: -0.038
7. EYAVIGKS: -0.186
8. LHIVMLVLMASMEQTVTS: -1.11
9. RARQNAFREW: -0.301
10. TFVLYGCDRKVFRRNVVTAS: 0.316
11. LCALVRICFPMADYEGRGGC: 2.33
12. ATKSLRIYLARVMHETSTFG: -0.822
13. WGDLHRMVMISREVEPVSNI: -0.361
14. KKGLLIVVVAHSERYVVDIA: -0.547
15. VKKLQVA: 1.11
16. DLLVNCDAVKLVYLSGYVDV: 0.342
17. TNRPLVLTDNVNKSLKMRLP: 0.638
18. WCTTVRIRLYGSSIWRLFGA: 0.76
19. AGYCVCLYMLEYSGTFGYSH: 1.63
20. QYMLFMYLGVVLKCH: 0.644
21. VRLNQLDNSLAVRSATNPGA: 0.524
22. FASVDTRETSSGMGGISKTG: -0.742
23. VFLVGMFLIRRVAVN: 0.72
24. CCVRACFPWNVLCKEMIFTR: -0.663
25. TFVGLRVSAHRTQWALGDT: -1.51
26. SYSYDARNCNNTRDGNYNFL: -1.99
27. DWVVFWIRSFILSPPRAHQN: 0.025
